Every entry's value here was drawn from patent US20090118332A1.

ASSAYED_TARGET: human Fatty Acid Synthase (Homo sapiens, UniProt P49327)
Construct: made in house
Sequence (P49327 whole entry): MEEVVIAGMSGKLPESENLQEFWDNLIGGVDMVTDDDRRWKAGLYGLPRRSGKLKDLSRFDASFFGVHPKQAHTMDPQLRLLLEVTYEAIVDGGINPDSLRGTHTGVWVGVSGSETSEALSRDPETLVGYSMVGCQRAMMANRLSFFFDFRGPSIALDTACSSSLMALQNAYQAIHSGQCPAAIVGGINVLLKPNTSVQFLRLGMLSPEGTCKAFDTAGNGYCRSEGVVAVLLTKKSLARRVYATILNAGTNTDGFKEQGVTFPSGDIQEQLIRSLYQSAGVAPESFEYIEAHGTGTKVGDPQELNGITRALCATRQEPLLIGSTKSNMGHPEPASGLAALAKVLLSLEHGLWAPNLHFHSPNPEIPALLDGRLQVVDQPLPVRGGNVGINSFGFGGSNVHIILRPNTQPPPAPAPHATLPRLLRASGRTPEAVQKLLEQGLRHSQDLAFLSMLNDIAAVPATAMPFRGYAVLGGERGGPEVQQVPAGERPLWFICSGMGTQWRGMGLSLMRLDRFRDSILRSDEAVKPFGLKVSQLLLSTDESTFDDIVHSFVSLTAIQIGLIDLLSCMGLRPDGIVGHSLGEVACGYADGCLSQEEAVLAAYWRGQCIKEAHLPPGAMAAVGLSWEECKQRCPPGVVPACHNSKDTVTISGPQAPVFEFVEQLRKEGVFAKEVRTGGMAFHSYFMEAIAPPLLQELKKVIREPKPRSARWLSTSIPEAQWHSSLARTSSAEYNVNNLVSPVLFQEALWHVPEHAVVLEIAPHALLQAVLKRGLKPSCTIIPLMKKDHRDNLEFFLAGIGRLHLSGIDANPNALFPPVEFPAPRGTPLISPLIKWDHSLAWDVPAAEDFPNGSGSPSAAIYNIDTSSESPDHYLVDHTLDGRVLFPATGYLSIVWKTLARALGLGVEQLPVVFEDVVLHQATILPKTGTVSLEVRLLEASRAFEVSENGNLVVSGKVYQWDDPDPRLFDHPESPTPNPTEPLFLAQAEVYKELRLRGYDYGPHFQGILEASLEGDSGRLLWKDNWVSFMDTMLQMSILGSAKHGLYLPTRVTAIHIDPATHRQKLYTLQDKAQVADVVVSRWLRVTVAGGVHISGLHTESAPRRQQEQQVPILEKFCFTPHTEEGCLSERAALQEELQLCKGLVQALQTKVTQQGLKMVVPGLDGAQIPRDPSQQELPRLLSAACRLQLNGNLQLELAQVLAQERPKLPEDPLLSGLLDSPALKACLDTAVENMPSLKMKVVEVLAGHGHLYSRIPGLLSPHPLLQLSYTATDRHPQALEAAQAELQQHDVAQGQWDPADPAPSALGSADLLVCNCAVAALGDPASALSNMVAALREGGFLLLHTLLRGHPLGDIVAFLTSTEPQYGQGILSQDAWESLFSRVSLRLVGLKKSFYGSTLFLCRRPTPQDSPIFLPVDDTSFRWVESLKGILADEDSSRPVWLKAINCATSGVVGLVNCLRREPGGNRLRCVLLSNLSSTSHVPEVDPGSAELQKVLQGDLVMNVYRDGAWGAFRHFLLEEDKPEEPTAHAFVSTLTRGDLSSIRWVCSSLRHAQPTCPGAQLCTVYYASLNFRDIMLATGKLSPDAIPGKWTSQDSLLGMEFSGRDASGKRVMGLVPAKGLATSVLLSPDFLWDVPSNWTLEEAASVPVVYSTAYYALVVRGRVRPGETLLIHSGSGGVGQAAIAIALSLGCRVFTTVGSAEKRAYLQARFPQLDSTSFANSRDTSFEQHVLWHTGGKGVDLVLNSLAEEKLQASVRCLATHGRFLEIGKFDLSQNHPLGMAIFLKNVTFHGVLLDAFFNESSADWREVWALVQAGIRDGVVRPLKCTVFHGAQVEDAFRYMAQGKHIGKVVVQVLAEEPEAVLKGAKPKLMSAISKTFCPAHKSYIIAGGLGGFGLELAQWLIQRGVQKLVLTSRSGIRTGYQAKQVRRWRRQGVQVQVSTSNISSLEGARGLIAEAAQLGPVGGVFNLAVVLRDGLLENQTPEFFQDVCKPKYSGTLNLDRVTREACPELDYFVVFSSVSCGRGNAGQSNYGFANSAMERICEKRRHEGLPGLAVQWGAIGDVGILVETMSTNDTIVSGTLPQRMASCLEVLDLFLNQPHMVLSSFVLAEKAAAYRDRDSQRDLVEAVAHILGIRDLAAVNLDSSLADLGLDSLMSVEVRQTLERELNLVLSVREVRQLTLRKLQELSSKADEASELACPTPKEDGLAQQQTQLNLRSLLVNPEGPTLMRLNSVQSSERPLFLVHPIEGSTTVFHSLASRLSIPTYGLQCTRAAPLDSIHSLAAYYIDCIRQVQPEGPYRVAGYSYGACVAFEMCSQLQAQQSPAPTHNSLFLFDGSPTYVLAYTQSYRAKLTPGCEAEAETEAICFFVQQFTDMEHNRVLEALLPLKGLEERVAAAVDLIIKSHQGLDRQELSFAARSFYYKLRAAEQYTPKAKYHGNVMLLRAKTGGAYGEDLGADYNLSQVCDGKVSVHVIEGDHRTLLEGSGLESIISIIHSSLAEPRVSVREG
ASSAY_METHOD_TEXT: Human FAS enzyme assay (decrease in NADPH fluorescence)
Type: biochemical
MEASUREMENT_PARAMETERS: % inhibition at a concentration of 100 μmolar
Measured inhibition at 100 µM values are reported for all entries that follow.
Include the unit right after the number.

Below: 5 molecules and their reported inhibition at 100 µM.
>>> experimental_result("CCOC(=O)C(C)NC(=O)Nc1cc(C(=O)N2CCC(c3ccc(C#N)cc3)CC2)ccc1C (stereo not drawn)")
"60.8%"
>>> experimental_result("CCN1CCC[C@H]1CNC(=O)Nc1cc(C(=O)N2CCC(c3ccc(C#N)cc3)CC2)ccc1C")
"80.2%"
>>> experimental_result("Cc1ccc(C(=O)N2CCC(c3ccc(C#N)cc3)CC2)cc1NC(=O)N[C@@H]1CCCC[C@@H]1NS(=O)(=O)N(C)C (relative stereo)")
"94.9%"
>>> experimental_result("Cc1ccc(C(=O)N2CCC(c3ccc(C#N)cc3)CC2)cc1NC(=O)N[C@@H]1CCN(C(=O)OC(C)(C)C)C1")
"89.7%"
>>> experimental_result("Cc1ccc(C(=O)N2CCC(c3ccc(C(F)(F)F)cc3)CC2)cc1NC(=O)NC1CCCN(C(=O)OC(C)(C)C)C1 (stereo not drawn)")
"90.9%"

I'd like to know its inhibition at 100 µM. The molecule in question is CCCS(=O)(=O)NCCNC(=O)Nc1cc(C(=O)N2CCC(c3ccc(C#N)cc3)CC2)ccc1C
97.4%

I'd like to know its inhibition at 100 µM. The molecule in question is CC(C)NC(=O)Nc1ccc(F)c(C(=O)N2CCC(c3ccc(C#N)cc3)CC2)c1
71.1%

I'd like to know its inhibition at 100 µM. The molecule in question is Cc1ccc(C(=O)N2CCC(c3ccc(C#N)cc3)CC2)cc1NC(=O)NC1CCN(C(=O)N(C)C)CC1
106%
